biological target: Telomerase reverse transcriptase (Homo sapiens); test: Inhibition of telomerase in human MGC803 cell extracts after 24 hrs by TRAP-PCR-ELISA
endpointLabel: IC50 (µM)
Give bare numbers, in µM.

Study these solved cases before continuing.
CC1=C(O)C(=O)C=C2C1=CC=C1[C@@]2(C)CC[C@@]2(C)[C@@H]3C[C@](C)(C(=O)N4CCN(CCN5CCOCC5)CC4)CC[C@]3(C)CC[C@]12C = 15.2
C/C(=C\C(=O)Nc1ccccc1C(=O)O)c1ccc2ccccc2c1 = 0.41
CC1=C(O)C(=O)C=C2C1=CC=C1[C@@]2(C)CC[C@@]2(C)[C@@H]3C[C@](C)(C(=O)N4CCOCC4)CC[C@]3(C)CC[C@]12C = 8.01
CC1=C(O)C(=O)C=C2C1=CC=C1[C@@]2(C)CC[C@@]2(C)[C@@H]3C[C@](C)(C(=O)NCCO)CC[C@]3(C)CC[C@]12C = 0.11
CNC(=O)[C@]1(C)CC[C@]2(C)CC[C@]3(C)C4=CC=C5C(=CC(=O)C(O)=C5C)[C@]4(C)CC[C@@]3(C)[C@@H]2C1 = 15.1

List reported IC50 for each of these molecules:
1. CC1=C(O)C(=O)C=C2C1=CC=C1[C@@]2(C)CC[C@@]2(C)[C@@H]3C[C@](C)(C(=O)N(C)C)CC[C@]3(C)CC[C@]12C
2. CC1=C(O)C(=O)C=C2C1=CC=C1[C@@]2(C)CC[C@@]2(C)[C@@H]3C[C@](C)(C(=O)NCC(C)O)CC[C@]3(C)CC[C@]12C (stereo partly drawn)
3. CC1=C(O)C(=O)C=C2C1=CC=C1[C@@]2(C)CC[C@@]2(C)[C@@H]3C[C@](C)(C(=O)N4CCN(CCO)CC4)CC[C@]3(C)CC[C@]12C

Response:
21
0.34
2.01

====

Hi there, I'd appreciate the recorded logP for every entry that follows.
test: Octanol-water partition coefficient, log P of the compound by shake-flask method; assay type: physicochemical
Numbers only.

CC1=C(O)C(=O)C=C2C1=CC=C1[C@@]2(C)CC[C@@]2(C)[C@@H]3C[C@](C)(C(=O)NCCO)CC[C@]3(C)CC[C@]12C = 3.44
CC1=C(O)C(=O)C=C2C1=CC=C1[C@@]2(C)CC[C@@]2(C)[C@@H]3C[C@](C)(C(=O)N4CCN(CCO)CC4)CC[C@]3(C)CC[C@]12C = 3.44
CC1=C(O)C(=O)C=C2C1=CC=C1[C@@]2(C)CC[C@@]2(C)[C@@H]3C[C@](C)(C(=O)O)CC[C@]3(C)CC[C@]12C [CELASTROL] = 4.38
CC1=C(O)C(=O)C=C2C1=CC=C1[C@@]2(C)CC[C@@]2(C)[C@@H]3C[C@](C)(C(=O)N4CCN(CCN(C)C)CC4)CC[C@]3(C)CC[C@]12C = 3.95

# map each compound to its logP
1. CCOC(=O)[C@]1(C)CC[C@]2(C)CC[C@]3(C)C4=CC=C5C(=CC(=O)C(O)=C5C)[C@]4(C)CC[C@@]3(C)[C@@H]2C1
2. CC1=C(O)C(=O)C=C2C1=CC=C1[C@@]2(C)CC[C@@]2(C)[C@@H]3C[C@](C)(C(=O)N(C)C)CC[C@]3(C)CC[C@]12C
3. CNC(=O)[C@]1(C)CC[C@]2(C)CC[C@]3(C)C4=CC=C5C(=CC(=O)C(O)=C5C)[C@]4(C)CC[C@@]3(C)[C@@H]2C1
4. CC1=C(O)C(=O)C=C2C1=CC=C1[C@@]2(C)CC[C@@]2(C)[C@@H]3C[C@](C)(C(=O)N4CCOCC4)CC[C@]3(C)CC[C@]12C
5. CC1=C(O)C(=O)C=C2C1=CC=C1[C@@]2(C)CC[C@@]2(C)[C@@H]3C[C@](C)(C(=O)NCC(C)O)CC[C@]3(C)CC[C@]12C (stereo not given in full)
6. CC1=C(O)C(=O)C=C2C1=CC=C1[C@@]2(C)CC[C@@]2(C)[C@@H]3C[C@](C)(C(=O)N4CCN(CCN5CCOCC5)CC4)CC[C@]3(C)CC[C@]12C

Response:
1: 4.98; 2: 4.2; 3: 3.96; 4: 3.8; 5: 3.49; 6: 3.5

====

So I've got a bunch of compounds here, and I need their IC50 values.
tested on: MGC-803; assay: Anticancer activity against human MGC803 cells assessed as cell survival after 48 hrs by MTT assay; assay type: functional, cell-based; conditions: MGC-803, 48 h
Give bare numbers, in µM.

CC1=C(O)C(=O)C=C2C1=CC=C1[C@@]2(C)CC[C@@]2(C)[C@@H]3C[C@](C)(C(=O)NCC(C)O)CC[C@]3(C)CC[C@]12C (stereo partly drawn) = 1.22
CC1=C(O)C(=O)C=C2C1=CC=C1[C@@]2(C)CC[C@@]2(C)[C@@H]3C[C@](C)(C(=O)N4CCOCC4)CC[C@]3(C)CC[C@]12C = 30.7
COc1cccc2c1C(=O)c1c(O)c3c(c(O)c1C2=O)C[C@@](O)(C(=O)CO)C[C@@H]3O[C@H]1C[C@H](N)[C@H](O)[C@H](C)O1 = 1.19
CC1=C(O)C(=O)C=C2C1=CC=C1[C@@]2(C)CC[C@@]2(C)[C@@H]3C[C@](C)(C(=O)N(C)C)CC[C@]3(C)CC[C@]12C = 6.3
CCOC(=O)[C@]1(C)CC[C@]2(C)CC[C@]3(C)C4=CC=C5C(=CC(=O)C(O)=C5C)[C@]4(C)CC[C@@]3(C)[C@@H]2C1 = 12

Hi! Can you tell me IC50 for each of these compounds?
1. CC1=C(O)C(=O)C=C2C1=CC=C1[C@@]2(C)CC[C@@]2(C)[C@@H]3C[C@](C)(C(=O)NCCO)CC[C@]3(C)CC[C@]12C
2. CCCCNC(=O)[C@]1(C)CC[C@]2(C)CC[C@]3(C)C4=CC=C5C(=CC(=O)C(O)=C5C)[C@]4(C)CC[C@@]3(C)[C@@H]2C1
3. CC1=C(O)C(=O)C=C2C1=CC=C1[C@@]2(C)CC[C@@]2(C)[C@@H]3C[C@](C)(C(=O)N4CCN(CCN5CCOCC5)CC4)CC[C@]3(C)CC[C@]12C
4. CC1=C(O)C(=O)C=C2C1=CC=C1[C@@]2(C)CC[C@@]2(C)[C@@H]3C[C@](C)(C(=O)N4CCN(CCO)CC4)CC[C@]3(C)CC[C@]12C
5. CNC(=O)[C@]1(C)CC[C@]2(C)CC[C@]3(C)C4=CC=C5C(=CC(=O)C(O)=C5C)[C@]4(C)CC[C@@]3(C)[C@@H]2C1
6. O=c1[nH]cc(F)c(=O)[nH]1

Response:
1. 0.39
2. 3.55
3. 13.4
4. 10.3
5. 24.1
6. 3.58

For every item below, please supply its IC50.
1. CC1=C(O)C(=O)C=C2C1=CC=C1[C@@]2(C)CC[C@@]2(C)[C@@H]3C[C@](C)(C(=O)N4CCN(CCN(C)C)CC4)CC[C@]3(C)CC[C@]12C
2. CC1=C(O)C(=O)C=C2C1=CC=C1[C@@]2(C)CC[C@@]2(C)[C@@H]3C[C@](C)(C(=O)O)CC[C@]3(C)CC[C@]12C

Response:
1. 1
2. 1.55

====

biological target: Telomerase reverse transcriptase (Homo sapiens, UniProt O14746); experiment: Inhibition of telomerase in human MGC803 cell extracts after 24 hrs by TRAP-PCR-ELISA
Sequence (O14746 whole entry): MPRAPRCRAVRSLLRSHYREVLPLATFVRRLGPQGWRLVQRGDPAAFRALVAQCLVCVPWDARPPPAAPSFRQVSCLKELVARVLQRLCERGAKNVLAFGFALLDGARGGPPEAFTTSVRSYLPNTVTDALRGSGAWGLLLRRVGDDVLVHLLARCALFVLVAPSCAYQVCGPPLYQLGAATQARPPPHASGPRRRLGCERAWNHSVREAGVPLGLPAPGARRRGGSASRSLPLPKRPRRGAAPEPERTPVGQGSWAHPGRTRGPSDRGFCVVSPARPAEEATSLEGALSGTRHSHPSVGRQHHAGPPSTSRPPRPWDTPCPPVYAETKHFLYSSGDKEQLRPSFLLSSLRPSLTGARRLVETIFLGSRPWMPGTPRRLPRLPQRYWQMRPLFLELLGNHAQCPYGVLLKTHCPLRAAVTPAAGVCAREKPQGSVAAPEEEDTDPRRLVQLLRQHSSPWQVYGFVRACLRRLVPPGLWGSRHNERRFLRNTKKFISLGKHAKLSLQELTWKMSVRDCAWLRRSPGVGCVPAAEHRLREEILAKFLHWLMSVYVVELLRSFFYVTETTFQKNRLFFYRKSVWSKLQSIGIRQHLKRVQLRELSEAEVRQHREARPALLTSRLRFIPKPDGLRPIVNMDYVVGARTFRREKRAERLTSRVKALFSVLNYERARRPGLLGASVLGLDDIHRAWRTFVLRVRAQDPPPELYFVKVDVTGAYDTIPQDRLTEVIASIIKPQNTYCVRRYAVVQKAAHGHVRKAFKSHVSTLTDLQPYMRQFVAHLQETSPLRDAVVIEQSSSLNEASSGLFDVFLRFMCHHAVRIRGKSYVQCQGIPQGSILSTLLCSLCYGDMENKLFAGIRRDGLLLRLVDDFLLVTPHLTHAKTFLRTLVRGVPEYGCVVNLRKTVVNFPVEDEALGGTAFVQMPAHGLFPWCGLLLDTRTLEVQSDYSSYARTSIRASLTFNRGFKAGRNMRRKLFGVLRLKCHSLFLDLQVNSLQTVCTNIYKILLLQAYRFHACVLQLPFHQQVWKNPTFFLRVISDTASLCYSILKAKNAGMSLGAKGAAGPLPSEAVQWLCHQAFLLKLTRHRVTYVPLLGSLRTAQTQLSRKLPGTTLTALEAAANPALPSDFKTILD
endpointLabel: IC50 (µM)
One number for each entry, in µM.

Sample records with IC50:
CC1=C(O)C(=O)C=C2C1=CC=C1[C@@]2(C)CC[C@@]2(C)[C@@H]3C[C@](C)(C(=O)O)CC[C@]3(C)CC[C@]12C = 0.78
CC1=C(O)C(=O)C=C2C1=CC=C1[C@@]2(C)CC[C@@]2(C)[C@@H]3C[C@](C)(C(=O)N4CCN(CCN(C)C)CC4)CC[C@]3(C)CC[C@]12C = 1.41

Now consider a different compound.
Prompt: Sample "CCOC(=O)[C@]1(C)CC[C@]2(C)CC[C@]3(C)C4=CC=C5C(=CC(=O)C(O)=C5C)[C@]4(C)CC[C@@]3(C)[C@@H]2C1" — what was its IC50?
Response: 18.6
